target.or.test.system: Histone deacetylase 1 (Homo sapiens)
Sequence (Q13547 whole entry): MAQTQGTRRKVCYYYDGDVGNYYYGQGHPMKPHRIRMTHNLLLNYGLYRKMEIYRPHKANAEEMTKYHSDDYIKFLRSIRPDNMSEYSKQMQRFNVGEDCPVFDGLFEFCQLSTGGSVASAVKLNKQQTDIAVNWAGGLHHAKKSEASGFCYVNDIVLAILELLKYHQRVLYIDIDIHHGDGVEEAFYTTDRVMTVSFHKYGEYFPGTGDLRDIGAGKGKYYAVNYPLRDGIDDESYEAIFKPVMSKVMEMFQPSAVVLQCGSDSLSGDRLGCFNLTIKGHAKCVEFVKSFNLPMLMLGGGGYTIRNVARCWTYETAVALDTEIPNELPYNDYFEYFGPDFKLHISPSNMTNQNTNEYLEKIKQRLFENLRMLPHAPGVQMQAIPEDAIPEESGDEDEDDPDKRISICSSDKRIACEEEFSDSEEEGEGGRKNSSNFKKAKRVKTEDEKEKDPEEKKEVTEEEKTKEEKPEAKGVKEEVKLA
test.details: Inhibition of recombinant human C-terminal FLAG-tagged HDAC1 expressed in human HEK293F cells using Fluor-de-lys substrate as substrate incubated for 3 hrs followed by substrate addition and measured after 60 mins by fluorescence based assay
The label met is reserved for IC50 strictly under 200 nM; not met covers values equal to or above it.

CCC[C@H](NC(=O)C1CN(C)C1)c1ncc(-c2cc3ccccc3nc2OC)[nH]1 : not met
CCCC[C@H](NC(=O)Cc1c[nH]c2ccccc12)c1ncc(-c2cc3ccccc3nc2OC)[nH]1 : not met
COc1nc2ccccc2cc1-c1cnc([C@H](C)NC(=O)C2CN(C)C2)[nH]1 : not met
CCCC[C@H](NC(=O)[C@H](CN)c1c(C)[nH]c2ccc(O)cc12)c1ncc(-c2cc3ccccc3nc2OC)[nH]1 : met
CCCCCCCC[C@H](NC(=O)C1CN(C)C1)c1ncc(-c2cc3ccccc3nc2OC)[nH]1 : not met
CCCC[C@H](NC(=O)[C@H](C)c1c(C)[nH]c2ccc(OC)cc12)c1ncc(-c2cc3ccccc3nc2OC)[nH]1 : met
CCCC[C@H](NC(=O)Cc1c[nH]c2ccc(OC)cc12)c1ncc(-c2cc3ccccc3nc2OC)[nH]1 : not met
CCCCC[C@H](NC(=O)C1CN(C)C1)c1ncc(-c2cc3ccccc3nc2OC)[nH]1 : not met
CCCC[C@H](NC(=O)C1CN(C)C1)c1ncc(-c2cc3ccccc3nc2OC)[nH]1 : not met
CC[C@H](NC(=O)C1CN(C)C1)c1ncc(-c2cc3ccccc3nc2OC)[nH]1 : not met

Please indicate whether the reported IC50 of "CCCC[C@H](NC(=O)[C@H](C)c1c(C)[nH]c2ccc(O)cc12)c1ncc(-c2cc3ccccc3nc2OC)[nH]1" is strictly below 200 nM.
met
